Entries and their viability, T/C values follow.
# System: KRAS-mutant PDC complex spheroid viability;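 also: viability read after seven days of compound exposure; 100% = DMSO vehicle-treated spheroids so lower means less viable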
# ASSAY_OVERVIEW: Anticancer human tumor 186277-243-T-J2-PDC patient-derived colon adenocarcinoma cell line growth inhibition [KRAS2]
# EXPERIMENTAL_PARAMETERS: second compound 10 µM; first compound 0.0316 µM; active compounds read low
# Description: Multicellular complex tumor spheroid response to RAS pathway inhibitors in combination with a targeted agents in patient-derived cell lines with oncogenic KRAS variants from multiple cancer types A high-throughput screen of multi-cell type tumor spheroids was designed to identify active combinations of targeted small molecules and KRAS pathway inhibitors. […] Compounds. […] If the clinical Cmax for an agent had not been determined, the highest concentration tested was 10 microM. […]
Give the value, in units of %, as a plain number.

Some solved cases for reference:
CC(=O)OC12COC1CC(O)C1(C)C(=O)C(O)C3=C(C)C(OC(=O)C(O)C(NC(=O)OC(C)(C)C)c4ccccc4)CC(O)(C(OC(=O)c4ccccc4)C21)C3(C)C (centres undefined) + C=CC(=O)N1CCN(c2nc(=O)n(-c3c(C)ccnc3C(C)C)c3nc(-c4c(O)cccc4F)c(F)cc23)C(C)C1 = 5.4
Cn1ncnc1[C@H]1c2n[nH]c(=O)c3cc(F)cc(c23)N[C@@H]1c1ccc(F)cc1 + C=CC(=O)N1CCN(c2nc(=O)n(-c3c(C)ccnc3C(C)C)c3nc(-c4c(O)cccc4F)c(F)cc23)C(C)C1 = 32.9
CC(=O)OC12COC1CC(O)C1(C)C(=O)C(O)C3=C(C)C(OC(=O)C(O)C(NC(=O)OC(C)(C)C)c4ccccc4)CC(O)(C(OC(=O)c4ccccc4)C21)C3(C)C (centres undefined) + CC1OCC2(CCN(c3cnc(Sc4ccnc(N)c4Cl)c(N)n3)CC2)C1N = 1.99

Kindly consider the entry below.
Provide measured viability, T/C on KRAS-mutant PDC complex spheroid viability for CCN1CCN(Cc2ccc(Nc3ncc(F)c(-c4cc(F)c5nc(C)n(C(C)C)c5c4)n3)nc2)CC1 + CC1OCC2(CCN(c3cnc(Sc4ccnc(N)c4Cl)c(N)n3)CC2)C1N please.
67
